B1: library; numbered along this chain (parent)
chain: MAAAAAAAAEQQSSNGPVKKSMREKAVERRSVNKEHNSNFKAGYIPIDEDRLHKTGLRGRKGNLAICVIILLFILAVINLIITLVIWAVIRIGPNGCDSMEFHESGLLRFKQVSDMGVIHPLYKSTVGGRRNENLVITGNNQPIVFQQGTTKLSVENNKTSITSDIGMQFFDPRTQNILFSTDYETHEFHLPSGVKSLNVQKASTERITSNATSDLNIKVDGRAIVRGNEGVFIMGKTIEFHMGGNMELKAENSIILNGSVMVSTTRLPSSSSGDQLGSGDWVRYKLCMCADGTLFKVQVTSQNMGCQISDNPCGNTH

Variants of: B1
Test: SGCB cell-surface expression functional score (HA stain, bin4 vs bin1, normalised to synonymous) (log10 ratio); higher = more cell-surface SGCB (functional)
Label NO if SGCB cell-surface expression functional score (log10) falls below 0.01; label YES in every other case.

1. L108F: NO
2. R60F: NO
3. V200S: NO
4. D115C: NO
5. F233V: YES
6. R51M: NO
7. T294A: YES
8. S38W: NO
9. L57C: YES
10. A212W: NO
11. P269L: YES
12. S154T: NO
13. I178F: NO
14. F296S: NO
15. A3M: YES
16. L57N: YES
17. Q299C: NO
18. C307S: NO
19. E101N: NO
20. T301A: NO
21. G315I: NO
22. H103S: YES
23. E133N: YES
24. E185P: YES
25. T150I: YES
26. A8H: YES
27. P17I: NO
28. D292L: YES
29. I144W: NO
30. N229S: YES
31. H103C: NO
32. T138Y: NO
33. K159W: NO
34. T83Y: NO
35. P192I: NO
36. S270A: YES
37. L216C: NO
38. A2M: YES
39. P192S: NO
40. G228V: NO
41. G278Y: YES
42. L153I: NO
43. H53T: YES
44. I225Q: YES
45. L257R: NO
46. N199A: NO
47. R284T: NO
48. A26K: YES
49. V27D: NO
50. R109E: NO
51. D292M: YES
52. T238S: YES
